tested on: S. aureus resistant to meticillin; experiment: Antibacterial activity, microdilution in culture broth (NCCLS), strain A; assay type: cell-based; details: Staphylococcus aureus, G (+) hospital strain, inoculum 5×10^5 UFC/ml

compound	qualifier_sign	MIC, µg/mL
CC(=O)NC[C@H]1CN(c2ccc(N3CCN(c4c(F)cc5c(=O)c(C(=O)O)cn6c5c4OCC6C)CC3)cc2)C(=O)O1 (stereo partly shown) [EXAMP. 5]	=	0.5
CC(=O)NC[C@H]1CN(c2ccc(N3CCN(c4c(F)cc5c(=O)c(C(=O)O)cn6c5c4OCC6C)CC3)c(F)c2)C(=O)O1 (stereo partly shown) [EXAMP. 7]	=	0.25
CC(=O)NC[C@H]1CN(c2ccc(N3CCN(c4nc5c(cc4F)c(=O)c(C(=O)O)cn5C4CC4)CC3)c(F)c2)C(=O)O1 [EXAMP. 21]	=	0.25
CC(=O)NC[C@H]1CN(c2ccc(N3CCN(c4c(F)cc5c(=O)c(C(=O)O)cn(CCF)c5c4F)CC3)c(F)c2)C(=O)O1 [EXAMP. 22]	<	0.125
CC(=O)NC[C@H]1CN(c2ccc(N3CCN(c4cc5c(cc4F)c(=O)c(C(=O)O)cn5C4CC4)CC3)c(F)c2)C(=O)O1 [EXAMP. 1 + 8]	=	0.25
CC(=O)NC[C@H]1CN(c2ccc(N3CCOCC3)c(F)c2)C(=O)O1 [Linezolid, reference compound]	=	2
CCOC(=O)c1cn(C2CC2)c2nc(N3CCN(c4ccc(N5C[C@H](CNC(C)=O)OC5=O)cc4F)CC3)c(F)cc2c1=O [EXAMP. 16]	=	4

====

tested on: S. pyogenes; assay: Antibacterial activity, microdilution in culture broth (NCCLS), strain F; format: cell-based; conditions: Streptococcus pyogenes, G (+) hospital strain, inoculum 5×10^5 UFC/ml
assay_readout: MIC (µg/mL)

compound	qualifier_sign	numeric_readout
CCOC(=O)c1cn(C2CC2)c2nc(N3CCN(c4ccc(N5C[C@H](CNC(C)=O)OC5=O)cc4F)CC3)c(F)cc2c1=O [EXAMP. 16]	=	1
CC(=O)NC[C@H]1CN(c2ccc(N3CCN(c4cc5c(cc4F)c(=O)c(C(=O)O)cn5C4CC4)CC3)c(F)c2)C(=O)O1 [EXAMP. 1 + 8]	<	0.125
CCOC(=O)c1cn(CCF)c2c(F)c(N3CCN(c4ccc(N5C[C@H](CNC(C)=O)OC5=O)cc4F)CC3)c(F)cc2c1=O [EXAMP. 17]	=	1

====

system: S. aureus resistant to meticillin; experiment: Antibacterial activity, microdilution in culture broth (NCCLS), strain A; assay type: cell-based; conditions: Staphylococcus aureus, G (+) hospital strain, inoculum 5×10^5 UFC/ml

compound	assayed_system	qualifier_sign	MIC / µg/mL
CCn1cc(C(=O)O)c(=O)c2cc(F)c(N3CCN(c4ccc(N5C[C@H](CNC(C)=O)OC5=O)cc4F)CC3)c(F)c21	S. aureus resistant to meticillin	<	0.125
CCOC(=O)c1cn(CCF)c2c(F)c(N3CCN(c4ccc(N5C[C@H](CNC(C)=O)OC5=O)cc4F)CC3)c(F)cc2c1=O	S. aureus resistant to meticillin	=	2
CCNC(=O)NC[C@H]1CN(c2ccc(N3CCN(c4cc5c(cc4F)c(=O)c(C(=O)O)cn5C4CC4)CC3)c(F)c2)C(=O)O1	S. aureus resistant to meticillin	=	1
CNC(=S)NC[C@H]1CN(c2ccc(N3CCN(c4cc5c(cc4F)c(=O)c(C(=O)O)cn5C4CC4)CC3)c(F)c2)C(=O)O1	S. aureus resistant to meticillin	<	0.125
C#CC(O)[C@H]1CN(c2ccc(N3CCN(c4nc5c(cc4F)c(=O)c(C(=O)O)cn5-c4ccc(F)cc4F)CC3)c(F)c2)C(=O)O1 (stereo partly drawn)	S. aureus resistant to meticillin	=	4
CC(=O)NC[C@H]1CN(c2ccc(N(C)C3CCN(c4c(F)cc5c(=O)c(C(=O)O)cn6c5c4OCC6C)C3)c(F)c2)C(=O)O1 (stereo partly drawn)	S. aureus resistant to meticillin	=	2

====

system: S. epidermidis; test: Antibacterial activity, microdilution in culture broth (NCCLS), strain E; type: cell-based; conditions: Staphylococcus epidermidis, G (+) hospital strain, inoculum 5×10^5 UFC/ml
assay_readout: log10 MIC (log10 of the value in mg/L)

compound	assay_readout	numeric_readout
CCOC(=O)c1cn(CCF)c2c(F)c(N3CCN(c4ccc(N5C[C@H](CNC(C)=O)OC5=O)cc4F)CC3)c(F)cc2c1=O [EXAMP. 17]	log10 MIC	0.00
CC(=O)NC[C@H]1CN(c2ccc(N(C)C3CCN(c4c(F)cc5c(=O)c(C(=O)O)cn6c5c4OCC6C)C3)c(F)c2)C(=O)O1 (stereo partly shown) [EXAMP. 6]	log10 MIC	-0.30
CC(=O)NC[C@H]1CN(c2ccc(N3CCOCC3)c(F)c2)C(=O)O1 [Linezolid, reference compound]	log10 MIC	0.00
C#CC(O)[C@H]1CN(c2ccc(N3CCN(c4nc5c(cc4F)c(=O)c(C(=O)O)cn5-c4ccc(F)cc4F)CC3)c(F)c2)C(=O)O1 (stereo partly shown) [EXAMP. 19]	log10 MIC	0.60
CC(=O)NC[C@H]1CN(c2ccc(N3CCN(c4c(F)cc5c(=O)c(C(=O)O)cn6c5c4OCC6C)CC3)cc2)C(=O)O1 (stereo partly shown) [EXAMP. 5]	log10 MIC	-0.60
CCOC(=O)c1cn(C2CC2)c2nc(N3CCN(c4ccc(N5C[C@H](CNC(C)=O)OC5=O)cc4F)CC3)c(F)cc2c1=O [EXAMP. 16]	log10 MIC	0.30
CCOC(=O)NC[C@H]1CN(c2ccc(N3CCN(c4cc5c(cc4F)c(=O)c(C(=O)O)cn5C4CC4)CC3)c(F)c2)C(=O)O1 [EXAMP. 11]	log10 MIC	-0.90
CC(=O)NC[C@H]1CN(c2ccc(N3CCN(c4nc5c(cc4F)c(=O)c(C(=O)O)cn5-c4ccc(F)cc4F)CC3)c(F)c2)C(=O)O1 [EXAMP. 20]	log10 MIC	-0.30
CCNC(=O)NC[C@H]1CN(c2ccc(N3CCN(c4cc5c(cc4F)c(=O)c(C(=O)O)cn5C4CC4)CC3)c(F)c2)C(=O)O1 [EXAMP. 10]	log10 MIC	-0.60
CC(=O)NC[C@H]1CN(c2ccc(N3CCN(c4c(F)cc5c(=O)c(C(=O)O)cn6c5c4OCC6C)CC3)c(F)c2)C(=O)O1 (stereo partly shown) [EXAMP. 7]	log10 MIC	-0.60
CC(=O)NC[C@H]1CN(c2ccc(N3CCN(c4cc5c(cc4F)c(=O)c(C(=O)O)cn5C4CC4)CC3)c(F)c2)C(=O)O1 [EXAMP. 1 + 8]	log10 MIC	-0.90

====

tested on: S. pyogenes; test: Antibacterial activity, microdilution in culture broth (NCCLS), strain F; format: cell-based; details: Streptococcus pyogenes, G (+) hospital strain, inoculum 5×10^5 UFC/ml

molecule	assayed_system	qualifier_sign	MIC [µg/mL]
CC(=O)NC[C@H]1CN(c2ccc(N(C)C3CCN(c4c(F)cc5c(=O)c(C(=O)O)cn6c5c4OCC6C)C3)c(F)c2)C(=O)O1 (stereo partly drawn)	S. pyogenes	=	1
CCNC(=O)NC[C@H]1CN(c2ccc(N3CCN(c4cc5c(cc4F)c(=O)c(C(=O)O)cn5C4CC4)CC3)c(F)c2)C(=O)O1	S. pyogenes	=	1
CC(=O)NC[C@H]1CN(c2ccc(N3CCN(c4c(F)cc5c(=O)c(C(=O)O)cn6c5c4OCC6C)CC3)c(F)c2)C(=O)O1 (stereo partly drawn)	S. pyogenes	=	0.25
CCOC(=O)NC[C@H]1CN(c2ccc(N3CCN(c4cc5c(cc4F)c(=O)c(C(=O)O)cn5C4CC4)CC3)c(F)c2)C(=O)O1	S. pyogenes	=	0.5
C#CC(O)[C@H]1CN(c2ccc(N3CCN(c4nc5c(cc4F)c(=O)c(C(=O)O)cn5-c4ccc(F)cc4F)CC3)c(F)c2)C(=O)O1 (stereo partly drawn)	S. pyogenes	=	8
CCn1cc(C(=O)O)c(=O)c2cc(F)c(N3CCN(c4ccc(N5C[C@H](CNC(C)=O)OC5=O)cc4F)CC3)c(F)c21	S. pyogenes	<	0.125

====

Entries annotated with measured MIC
test system: S. aureus resistant to meticillin; assay: Antibacterial activity, microdilution in culture broth (NCCLS), strain A; assay type: cell-based; settings: Staphylococcus aureus, G (+) hospital strain, inoculum 5×10^5 UFC/ml
Text: […]

smiles_representation	MIC (µg/mL)
CC(=O)NC[C@H]1CN(c2ccc(N3CCN(c4nc5c(cc4F)c(=O)c(C(=O)O)cn5-c4ccc(F)cc4F)CC3)c(F)c2)C(=O)O1	1
CCn1cc(C(=O)O)c(=O)c2cc(F)c(N3CCN(c4ccc(N5C[C@H](CNC(C)=O)OC5=O)cc4F)CC3)cc21	0.25
CCOC(=O)NC[C@H]1CN(c2ccc(N3CCN(c4cc5c(cc4F)c(=O)c(C(=O)O)cn5C4CC4)CC3)c(F)c2)C(=O)O1	0.5

Data origin: patent US20040147545A1
